Values compiled from the Kinase Knowledgebase extract (Sharma et al. 2016).

- target_system: MAPK14 (human) (UniProt Q16539)
- Sequence (Q16539 whole entry, looked up): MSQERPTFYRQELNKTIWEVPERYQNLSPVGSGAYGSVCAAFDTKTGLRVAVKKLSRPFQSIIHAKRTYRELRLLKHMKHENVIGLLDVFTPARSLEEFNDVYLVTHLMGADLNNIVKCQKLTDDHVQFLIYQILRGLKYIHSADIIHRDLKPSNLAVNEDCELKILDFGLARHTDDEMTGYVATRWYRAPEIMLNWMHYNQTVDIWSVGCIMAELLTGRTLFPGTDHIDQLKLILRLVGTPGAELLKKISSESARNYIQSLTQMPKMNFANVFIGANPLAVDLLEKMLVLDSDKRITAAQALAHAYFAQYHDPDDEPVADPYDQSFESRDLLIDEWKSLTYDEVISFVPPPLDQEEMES
- procedure_details: Inhibition of MAPK14 Kinase Activity by PHAS-I Assay
- run_parameters: concentration not given here
measured_parameter: inhibition (%)

Completed entries (count: 5):
# molecule, measured_parameter, result_value
data = [
    ("Cc1cccc(C)c1NC(=O)NCCc1[nH]nc(-c2ccc(F)cc2)c1-c1ccncc1", "inhibition", 56),
    ("Cc1c(-c2ccncc2)c(-c2ccc(F)cc2)nn1CC(=O)N[C@@H](C)c1cccc2ccccc12", "inhibition", 74),
    ("COc1cc(OC)c(NC(=O)NCCc2[nH]nc(-c3ccc(F)cc3)c2-c2ccncc2)cc1Cl", "inhibition", 82),
    ("COC(=O)[C@H](COCc1ccccc1)NC(=O)Cn1nc(-c2ccc(F)cc2)c(-c2ccncc2)c1C", "inhibition", 76),
    ("CCN(CC)C1CCN(C(=O)Cn2nc(-c3ccc(F)cc3)c(-c3ccncc3)c2C)C1 (stereo not drawn)", "inhibition", 40),
]

(a) CCOC(=O)NC(=O)NCCc1[nH]nc(-c2ccc(F)cc2)c1-c1ccncc1
(b) CCN(CC)C(=O)NCCCc1[nH]nc(-c2ccc(F)cc2)c1-c1ccncc1
// pick min by inhibition: a , b Reply with the label of the item you choose.
a
(a: 56%, b: 89%)

* * *

- target_system: UniProt:Q16539
- procedure_details: Inhibition of MAPK14 Kinase Activity by PHAS-I Assay
- run_parameters: concentration not given here
measured_parameter: inhibition (%)

Completed entries (count: 5):
# compound, readout_units, result_value
measured = [
    ("Cc1cc(Cl)ccc1OCC1SCCN1C(=O)Cn1nc(-c2ccc(F)cc2)c(-c2ccncc2)c1C (stereo not drawn)", "%", 47),
    ("CN(C)C(=O)NCCc1[nH]nc(-c2ccc(F)cc2)c1-c1ccncc1", "%", 75),
    ("CC(Oc1ccccc1)C(=O)NCCc1[nH]nc(-c2ccc(F)cc2)c1-c1ccncc1 (stereo not drawn)", "%", 80),
    ("COc1ccc2nc(NC(=O)Cn3nc(-c4ccc(F)cc4)c(-c4ccncc4)c3C)sc2c1", "%", 86),
    ("Cc1c(-c2ccncc2)c(-c2ccc(F)cc2)nn1CC(=O)Nc1ccc(OCCOc2ccccc2)cc1", "%", 75),
]

(a) C[C@@H](NC(=O)NCCCc1[nH]nc(-c2ccc(F)cc2)c1-c1ccncc1)c1ccccc1
(b) Cc1ccc(S(=O)(=O)N[C@H](CCc2ccccc2)C(=O)NCc2[nH]nc(-c3ccc(F)cc3)c2-c2ccncc2)cc1
// pick min by inhibition: a , b Reply with the label of the item you choose.
a

* * *

- target_system: MAPK14 (human)
- procedure_details: Inhibition of LPS Stimulated TNF Production by U937 Cells
- run_parameters: concentration not given here
measured_parameter: inhibition (%)

Completed entries (count: 3):
# molecule, inhibition (%)
data = [
    ("Cn1cnc(S(=O)(=O)N2CCC(c3[nH]nc(-c4ccc(F)cc4)c3-c3ccncc3)CC2)c1", 28),
    ("COC(=O)C(C)NC(=O)Cn1nc(-c2ccc(F)cc2)c(-c2ccncc2)c1C (stereo unspecified)", 1),
    ("C=Cc1ccc(S(=O)(=O)NCc2[nH]nc(-c3ccc(F)cc3)c2-c2ccncc2)cc1", 9),
]

(1) O=C(NCc1[nH]nc(-c2ccc(F)cc2)c1-c1ccncc1)Nc1ccc(OC(F)(F)F)cc1
(2) N#Cc1ccc(S(=O)(=O)N2CCC(c3[nH]nc(-c4ccc(F)cc4)c3-c3ccncc3)CC2)cc1
# argmax over inhibition for candidates 1 and 2 Reply with the label of the item you choose.
2
(2: 24%, 1: 11%)

* * *

- target_system: MAPK14 (human) (UniProt Q16539)
- procedure_details: Inhibition of LPS Stimulated TNF Production by U937 Cells
- run_parameters: concentration not given here
measured_parameter: inhibition (%)

Completed entries (count: 8):
# compound, target_system, result_value
rows = [
    ("O=C(NCc1[nH]nc(-c2ccc(F)cc2)c1-c1ccncc1)N[C@@H]1C[C@@H]1c1ccccc1", "MAPK14 (human) (UniProt Q16539)", 21),
    ("Cc1ccccc1S(=O)(=O)N[C@H](C)c1[nH]nc(-c2ccc(F)cc2)c1-c1ccncc1", "MAPK14 (human) (UniProt Q16539)", 92),
    ("C[C@@H](NC(=O)c1c(Cl)cccc1Cl)c1[nH]nc(-c2ccc(F)cc2)c1-c1ccncc1", "MAPK14 (human) (UniProt Q16539)", 87),
    ("C[C@@H](NC(=O)NCCc1[nH]nc(-c2ccc(F)cc2)c1-c1ccncc1)c1ccccc1", "MAPK14 (human) (UniProt Q16539)", 25),
    ("Cc1ccc(C)c(S(=O)(=O)N[C@H](C)c2[nH]nc(-c3ccc(F)cc3)c2-c2ccncc2)c1", "MAPK14 (human) (UniProt Q16539)", 93),
    ("CCCNC(=O)N[C@H](C)c1[nH]nc(-c2ccc(F)cc2)c1-c1ccncc1", "MAPK14 (human) (UniProt Q16539)", 55),
    ("O=S(=O)(NCCc1[nH]nc(-c2ccc(F)cc2)c1-c1ccncc1)c1cccs1", "MAPK14 (human) (UniProt Q16539)", 53),
    ("Cc1c(-c2ccncc2)c(-c2ccc(F)cc2)nn1CC(=O)Nc1ccc(S(=O)(=O)C(F)F)cc1", "MAPK14 (human) (UniProt Q16539)", 28),
]

(a) CCOC(=O)COc1cccc(NC(=O)Cn2nc(-c3ccc(F)cc3)c(-c3ccncc3)c2C)c1
(b) O=C(c1ccccc1Cl)N1CCC(c2[nH]nc(-c3ccc(F)cc3)c2-c2ccncc2)CC1
# argmax over inhibition for candidates a and b Reply with the label of the item you choose.
b
(b: 85%, a: 36%)

(1) CC(C)=CC(=O)N[C@H](C)c1[nH]nc(-c2ccc(F)cc2)c1-c1ccncc1
(2) CC(=O)Nc1ccc(S(=O)(=O)N[C@@H](C)c2[nH]nc(-c3ccc(F)cc3)c2-c2ccncc2)cc1
# argmax over inhibition for candidates 1 and 2 Reply with the label of the item you choose.
2

(A) C[C@H](NC(=O)c1ccc(Cl)cc1Cl)c1[nH]nc(-c2ccc(F)cc2)c1-c1ccncc1
(B) CCCCCCCC(=O)NCc1[nH]nc(-c2ccc(F)cc2)c1-c1ccncc1
(C) CN(C(=O)NCCc1[nH]nc(-c2ccc(F)cc2)c1-c1ccncc1)c1ccccc1
(D) CCN(CC)C(=O)NCCc1[nH]nc(-c2ccc(F)cc2)c1-c1ccncc1
(E) C[C@@H](NS(=O)(=O)c1ccc(Br)cc1)c1[nH]nc(-c2ccc(F)cc2)c1-c1ccncc1
Ordering criterion: inhibition; begin with the maximum. The reply should contain the labels ordered as requested.
E, C, A, D, B
(E: 89%, C: 41%, A: 28%, D: 19%, B: 4%)

(1) O=C(NCc1[nH]nc(-c2ccc(F)cc2)c1-c1ccncc1)c1ccc(F)c(F)c1
(2) COC(=O)[C@@H]1CCCN1C(=O)Cn1nc(-c2ccc(F)cc2)c(-c2ccncc2)c1C
# argmax over inhibition for candidates 1 and 2 Reply with the label of the item you choose.
2
(2: 39%, 1: 26%)

* * *

- target_system: MAPK14 (human) (UniProt Q16539)
- procedure_details: Inhibition of LPS Stimulated TNF Production by U937 Cells
measured_parameter: IC50 (nM)

Completed entries (count: 8):
# smiles_data, readout_units, result_value
data = [
    ("Fc1ccc(CNc2cc(-c3cnn(CCN4CCOCC4)c3-c3ccc(F)cc3)ccn2)cc1", "nM", 450),
    ("CC(C)NC(=O)NCc1[nH]nc(-c2ccc(F)cc2)c1-c1ccncc1", "nM", 10000),
    ("Cc1nn(C)c(-c2ccc(Cl)cc2)c1-c1ccncc1", "nM", 2700),
    ("O=C(NCCCc1[nH]nc(-c2ccc(F)cc2)c1-c1ccncc1)C1CCC1", "nM", 990),
    ("CCS(=O)(=O)N1CCC(c2[nH]nc(-c3ccc(F)cc3)c2-c2ccncc2)CC1", "nM", 250),
    ("Fc1ccc(-c2nn(CCN3CCOCC3)cc2-c2ccncc2)cc1", "nM", 1830),
    ("COc1ccc(S(=O)(=O)NCc2[nH]nc(-c3ccc(F)cc3)c2-c2ccncc2)cc1", "nM", 1780),
    ("CC(=O)OCC(=O)NCCCc1[nH]nc(-c2ccc(F)cc2)c1-c1ccncc1", "nM", 680),
]

(P) Cc1[nH]nc(-c2ccc(Cl)cc2)c1-c1ccncc1
(Q) Fc1cc(-c2c[nH]nc2-c2ccc(F)c(F)c2)ccn1
(R) O=S(=O)(NCc1[nH]nc(-c2ccc(F)cc2)c1-c1ccncc1)c1ccc(F)cc1
(S) C[C@@H](NC(N)=O)c1[nH]nc(-c2ccc(F)cc2)c1-c1ccncc1
(T) O=C(NCCc1[nH]nc(-c2ccc(F)cc2)c1-c1ccncc1)[C@@H]1CCCN1
Ordering criterion: IC50; begin with the maximum. The reply should contain the labels ordered as requested.
R, S, T, Q, P
